assay notes: physchem
reported conditions: USP biphthalate buffer, pH 5, aqueous buffer
experimental endpoint: solubility (µg/mL)
Expressed in µg/mL, but write only the number.

Ask: Specify solubility for NCC(=O)Nc1ccc(-n2nc(C(F)(F)F)cc2-c2ccc3c(ccc4ccccc43)c2)cc1 [AR-12] and stop.
Result: 0.07

* * *

assay notes: physchem
reported conditions: USP biphthalate buffer, pH 3.5, aqueous buffer
experimental endpoint: solubility

Ask: Let me know recorded solubility for NCC(=O)Nc1ccc(-n2nc(C(F)(F)F)cc2-c2ccc3c(ccc4ccccc43)c2)cc1 , thanks.
Result: 0.18 µg/mL

* * *

assay notes: physchem
reported conditions: USP chloride buffer, pH 1.2, simulated gastric fluid
experimental endpoint: solubility (µg/mL)
Just the number in µg/mL, nothing appended.

Ask: Give solubility for the following compound: NCC(=O)Nc1ccc(-n2nc(C(F)(F)F)cc2-c2ccc3c(ccc4ccccc43)c2)cc1
Result: 65.3

* * *

assay notes: physchem
reported conditions: USP phosphate buffer, pH 7.4, aqueous buffer
experimental endpoint: solubility (µg/mL)
# output: bare number, implied unit µg/mL

Ask: Report measured solubility; entry is NCC(=O)Nc1ccc(-n2nc(C(F)(F)F)cc2-c2ccc3c(ccc4ccccc43)c2)cc1 [AR-12]
Result: 0.06
